The values you see were collected from ChEMBL document CHEMBL4414548.

- MEASUREMENT PROTOCOL: Metabolic stability in mouse liver microsomes assessed as parent compound remaining after 10 mins
- Format: ADME, Microsome
- STATED CONDITIONS: read-out: Stability
MEASURED QUANTITY: remaining at 10 min (%)
Hi! Could you send only the number? It should be in %, unit omitted.

## Task For the molecule `CNC(=O)c1cnc(Nc2ccc(F)cn2)cc1Nc1ccccc1` , what remaining at 10 min is on record?
## Result 37

## Task Which measured remaining at 10 min value corresponds to `CCS(=O)(=O)c1ccccc1Nc1cc(Nc2ccc(F)cn2)ncc1C(=O)NC` ?
## Result 43

## Task Form field: reported remaining at 10 min of `[2H]C([2H])([2H])NC(=O)c1cnc(Nc2ccc(F)cn2)cc1Nc1ccccc1S(C)(=O)=O`
## Result 81

## Task Using the record for `CNC(=O)c1cnc(Nc2ccc(F)cn2)cc1Nc1ccccc1SC` , report its remaining at 10 min.
## Result 30

## Task Which remaining at 10 min reading was recorded for the molecule `CS(=O)(=O)c1ccccc1Nc1cc(Nc2ccc(F)cn2)ncc1C(N)=O` ?
## Result 80

## Task remaining at 10 min for `CNC(=O)c1cnc(Nc2ccc(F)cn2)cc1Nc1ccc(F)c(F)c1OC` ?
## Result 58

## Task # lookup: remaining at 10 min of `CNC(=O)c1cnc(Nc2ccc(F)cn2)cc1Nc1ccccc1S(C)(=O)=O`
## Result 87

## Task Which measured remaining at 10 min value corresponds to `CNC(=O)c1cnc(Nc2ccc(F)cn2)cc1Nc1ccccc1C(N)=O` ?
## Result 82

## Task Return reported remaining at 10 min; argument: `CNC(=O)c1cnc(Nc2ccc(F)cn2)cc1Nc1ccccc1OC`
## Result 35
